SUBJECT_OF_TEST: Adenosine receptor A1 (Homo sapiens, UniProt P30542)
Sequence (P30542 whole entry): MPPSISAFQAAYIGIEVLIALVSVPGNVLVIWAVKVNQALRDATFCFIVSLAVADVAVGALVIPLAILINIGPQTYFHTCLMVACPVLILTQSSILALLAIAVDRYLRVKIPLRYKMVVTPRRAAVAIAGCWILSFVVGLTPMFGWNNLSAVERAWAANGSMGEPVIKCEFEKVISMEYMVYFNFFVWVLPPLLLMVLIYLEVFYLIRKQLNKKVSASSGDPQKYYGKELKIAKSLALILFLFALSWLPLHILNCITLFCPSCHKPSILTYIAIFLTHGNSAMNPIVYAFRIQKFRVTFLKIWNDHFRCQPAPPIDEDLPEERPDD
TEST_METHOD_NOTES: Antagonist activity at human A1 adenosine receptor expressed in CHO cells assessed as inhibition of CCPA-induced reduction of forskolin-stimulated cAMP level after 30 mins by Alphascreen assay
METRIC_NAME: IC50 (nM)

[
  {
    "COMPOUND_STRUCTURE_STRING": "Cc1nc2c(N)nc(NCCc3cccs3)nc2s1",
    "SUBJECT_OF_TEST": "Adenosine receptor A1 (Homo sapiens, UniProt P30542)",
    "OBSERVED": 107
  }
]

====

SUBJECT_OF_TEST: UniProt:P29274
Sequence (P29274 whole entry): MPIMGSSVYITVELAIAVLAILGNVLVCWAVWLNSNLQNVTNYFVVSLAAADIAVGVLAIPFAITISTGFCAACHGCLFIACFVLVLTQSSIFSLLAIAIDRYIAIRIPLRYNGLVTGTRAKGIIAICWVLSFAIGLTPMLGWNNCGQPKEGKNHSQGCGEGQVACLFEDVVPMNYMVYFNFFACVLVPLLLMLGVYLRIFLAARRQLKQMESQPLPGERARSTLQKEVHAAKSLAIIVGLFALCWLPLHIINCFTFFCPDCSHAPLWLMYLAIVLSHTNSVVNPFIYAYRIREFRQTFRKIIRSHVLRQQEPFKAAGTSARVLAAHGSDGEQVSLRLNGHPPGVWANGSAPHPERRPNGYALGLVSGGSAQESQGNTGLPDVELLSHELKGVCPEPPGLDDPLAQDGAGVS
pKi: −log10 of the molar value.
Response key: yes (1) means pKi >= 7; no (0) means pKi < 7.

[
  {
    "COMPOUND_STRUCTURE_STRING": "COc1cccc(CNc2nc(N)c3nc(-c4ccccc4)sc3n2)c1",
    "DISCRETE_LABEL": "yes (1)"
  },
  {
    "COMPOUND_STRUCTURE_STRING": "Nc1nc(NCCc2ccccc2)nc2sc(-c3ccccc3)nc12",
    "DISCRETE_LABEL": "no (0)"
  },
  {
    "COMPOUND_STRUCTURE_STRING": "Nc1nc(Nc2ccccc2)nc2sc(-c3ccccc3)nc12",
    "DISCRETE_LABEL": "no (0)"
  },
  {
    "COMPOUND_STRUCTURE_STRING": "Cc1nc2c(N)nc(NCc3ccccc3)nc2s1",
    "DISCRETE_LABEL": "no (0)"
  },
  {
    "COMPOUND_STRUCTURE_STRING": "Nc1nc(NCc2cccs2)nc2sc(-c3cnccn3)nc12",
    "DISCRETE_LABEL": "no (0)"
  },
  {
    "COMPOUND_STRUCTURE_STRING": "Cc1nc2c(N)nc(Nc3ccccc3)nc2s1",
    "DISCRETE_LABEL": "no (0)"
  }
]

====

SUBJECT_OF_TEST: Adenosine receptor A2b (Homo sapiens, UniProt P29275)
Sequence (P29275 whole entry): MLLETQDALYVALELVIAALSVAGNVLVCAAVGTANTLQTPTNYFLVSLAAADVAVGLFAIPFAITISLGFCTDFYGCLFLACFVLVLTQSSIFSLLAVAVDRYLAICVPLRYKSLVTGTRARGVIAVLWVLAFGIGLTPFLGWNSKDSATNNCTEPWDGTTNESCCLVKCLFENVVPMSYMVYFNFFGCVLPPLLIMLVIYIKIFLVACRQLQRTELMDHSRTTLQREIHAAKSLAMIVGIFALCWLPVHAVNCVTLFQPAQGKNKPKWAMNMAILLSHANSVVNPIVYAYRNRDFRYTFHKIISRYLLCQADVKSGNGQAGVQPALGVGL
TEST_METHOD_NOTES: Antagonist activity at human A2B adenosine receptor assessed as inhibition of NECA-stimulated cAMP level after 30 mins by Alphascreen assay

[
  {
    "COMPOUND_STRUCTURE_STRING": "Nc1nc(NCCc2ccccc2)nc2sc(-c3ccccc3)nc12",
    "REL": "=",
    "IC50 (µM)": 4.38
  },
  {
    "COMPOUND_STRUCTURE_STRING": "Cc1nc2c(N)nc(NCCc3ccccc3)nc2s1",
    "REL": "=",
    "IC50 (µM)": 1.1
  },
  {
    "COMPOUND_STRUCTURE_STRING": "COc1ccc(CCNc2nc(N)c3nc(-c4ccccc4)sc3n2)cc1",
    "REL": ">",
    "IC50 (µM)": 10
  },
  {
    "COMPOUND_STRUCTURE_STRING": "Nc1nc(NCCc2ccc(O)cc2)nc2sc(-c3ccccc3)nc12",
    "REL": "=",
    "IC50 (µM)": 7.52
  },
  {
    "COMPOUND_STRUCTURE_STRING": "Cc1nc2c(N)nc(NCCc3cccs3)nc2s1",
    "REL": "=",
    "IC50 (µM)": 0.134
  }
]
